# tested_on: UniProtKB P81908
# Sequence (P81908 whole entry): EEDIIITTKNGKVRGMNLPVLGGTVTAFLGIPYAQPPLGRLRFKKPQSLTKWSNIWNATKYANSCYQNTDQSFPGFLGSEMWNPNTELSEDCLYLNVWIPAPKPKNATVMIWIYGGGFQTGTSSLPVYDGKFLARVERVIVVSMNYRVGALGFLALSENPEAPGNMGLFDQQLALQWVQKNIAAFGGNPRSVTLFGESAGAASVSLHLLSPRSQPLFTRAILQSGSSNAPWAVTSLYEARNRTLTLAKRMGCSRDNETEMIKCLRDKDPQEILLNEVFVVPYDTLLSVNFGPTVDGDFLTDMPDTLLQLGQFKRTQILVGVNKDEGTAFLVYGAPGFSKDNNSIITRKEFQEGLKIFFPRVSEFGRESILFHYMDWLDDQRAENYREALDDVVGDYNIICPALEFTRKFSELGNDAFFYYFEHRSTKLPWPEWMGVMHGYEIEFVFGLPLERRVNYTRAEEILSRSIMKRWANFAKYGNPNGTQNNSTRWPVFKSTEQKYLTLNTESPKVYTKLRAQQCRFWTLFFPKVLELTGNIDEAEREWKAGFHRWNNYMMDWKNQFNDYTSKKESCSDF
# method: Inhibition of equine serum BuChE using BTCI as substrate preincubated for 30 mins followed by substrate addition measured after 30 mins by Ellman assay
quantity: pIC50
One number for each entry, as −log10 of the molar value.

>>> readout_value("COc1ccc(-c2nc(NCC3CCN(Cc4ccccc4C(F)(F)F)CC3)sc2-c2ccc(OC)cc2)cc1")
5.10

Batch request: pIC50 per item, same order as input.
1. COc1ccc(-c2nc(NC(=O)C3CCN(Cc4ccccc4C)CC3)sc2-c2ccc(OC)cc2)cc1
2. O=C(Nc1nc(-c2ccc(Cl)cc2)c(-c2ccc(Cl)cc2)s1)C1CCN(Cc2ccccc2C(F)(F)F)CC1
3. Cc1ccccc1CN1CCC(CNc2nc(-c3ccc(Cl)cc3)c(-c3ccc(Cl)cc3)s2)CC1

[5.73, 5.47, 5.84]
